# maps each entry to its IC50
system tested: HDAC6 human recombinant (Homo sapiens, UniProt Q9UBN7)
Construct: purchased Calbiochem 382180
Sequence (Q9UBN7 whole entry): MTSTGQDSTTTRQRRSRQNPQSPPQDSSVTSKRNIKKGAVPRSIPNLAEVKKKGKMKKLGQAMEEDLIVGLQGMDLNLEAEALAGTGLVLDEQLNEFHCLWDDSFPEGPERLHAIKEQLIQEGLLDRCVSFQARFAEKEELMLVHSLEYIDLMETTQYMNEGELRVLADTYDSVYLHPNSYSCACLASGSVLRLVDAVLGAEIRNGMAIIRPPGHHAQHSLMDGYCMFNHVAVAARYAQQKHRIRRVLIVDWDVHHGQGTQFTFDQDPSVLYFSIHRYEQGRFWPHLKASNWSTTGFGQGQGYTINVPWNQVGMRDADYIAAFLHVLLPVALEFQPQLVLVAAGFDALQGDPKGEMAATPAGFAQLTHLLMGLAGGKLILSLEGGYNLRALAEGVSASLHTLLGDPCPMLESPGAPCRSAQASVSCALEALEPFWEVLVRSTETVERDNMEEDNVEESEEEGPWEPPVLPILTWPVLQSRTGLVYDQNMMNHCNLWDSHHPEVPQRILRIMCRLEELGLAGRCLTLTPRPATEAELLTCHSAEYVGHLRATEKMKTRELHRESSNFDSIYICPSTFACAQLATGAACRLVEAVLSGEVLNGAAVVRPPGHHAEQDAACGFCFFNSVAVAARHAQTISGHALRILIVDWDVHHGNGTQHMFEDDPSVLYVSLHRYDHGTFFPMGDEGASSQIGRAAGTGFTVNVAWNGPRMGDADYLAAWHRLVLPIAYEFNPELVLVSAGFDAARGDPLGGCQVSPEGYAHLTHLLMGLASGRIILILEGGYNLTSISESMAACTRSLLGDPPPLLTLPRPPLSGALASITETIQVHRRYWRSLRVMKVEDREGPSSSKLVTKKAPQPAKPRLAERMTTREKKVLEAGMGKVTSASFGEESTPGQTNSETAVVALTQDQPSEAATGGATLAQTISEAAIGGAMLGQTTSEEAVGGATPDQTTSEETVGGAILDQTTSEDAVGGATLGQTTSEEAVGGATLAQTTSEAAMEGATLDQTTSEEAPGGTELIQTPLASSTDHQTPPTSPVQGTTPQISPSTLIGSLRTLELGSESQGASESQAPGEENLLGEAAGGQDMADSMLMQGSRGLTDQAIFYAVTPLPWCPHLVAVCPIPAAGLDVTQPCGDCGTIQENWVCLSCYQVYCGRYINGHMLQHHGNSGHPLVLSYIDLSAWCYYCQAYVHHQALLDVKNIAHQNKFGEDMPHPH
assay procedure: HDAC6 enzyme activity inhibition (fluorimetric, in vitro)
Format: biochemical
recorded conditions: 37° C., 60 minutes; tested at 0.1, 1, 10, 100 and 1000 nM
assay endpoint: IC50 (nM)

# compound, value unit, reported result
records = [
    ("Cc1c(Cc2ccc(C(=O)NO)cc2)c2ccccc2n1CC1CCN(Cc2ccc(F)cc2)CC1", "nM", 90),
    ("Cc1c(Cc2ccc(C(=O)NO)cc2)c2ccccc2n1CCN1CCC(CF)C1 (centres unmarked)", "nM", 31),
    ("Cc1c(Cc2ccc(C(=O)NO)cc2)c2ccccc2n1CCN1CCCC(CO)C1 (centres unmarked)", "nM", 17),
    ("Cc1c(Cc2ccc(C(=O)NO)cc2)c2ccccc2n1CCN1CC[C@H](F)C1", "nM", 32),
    ("Cc1c(Cc2ccc(C(=O)NO)cc2)c2ccccc2n1CC1CCN(Cc2ccncc2)CC1", "nM", 89),
    ("Cc1c(Cc2ccc(C(=O)NO)cc2)c2cc(F)ccc2n1CCN1CC[C@H](F)C1", "nM", 63),
    ("Cc1c(Cc2ccc(C(=O)NO)cc2)c2ccccc2n1CCN1CCC[C@H]1CF", "nM", 82),
    ("Cc1c(Cc2ccc(C(=O)NO)cc2)c2ccccc2n1CCC1CCN(CC(C)(C)F)CC1", "nM", 307),
    ("Cc1c(Cc2ccc(C(=O)NO)cc2)c2ccccc2n1CC1CCN(Cc2cccc(F)c2)CC1", "nM", 1360),
    ("CCCCN1CCC(Cn2c(C)c(Cc3ccc(C(=O)NO)cc3)c3ccccc32)CC1", "nM", 80),
    ("Cc1c(Cc2ccc(C(=O)NO)cc2)c2ccccc2n1CC1CCN(CC(C)(C)O)CC1", "nM", 7),
]

----------
Entries below carry reported pIC50 on HDAC1 (Homo sapiens, UniProt Q13547).
Sequence (Q13547 whole entry): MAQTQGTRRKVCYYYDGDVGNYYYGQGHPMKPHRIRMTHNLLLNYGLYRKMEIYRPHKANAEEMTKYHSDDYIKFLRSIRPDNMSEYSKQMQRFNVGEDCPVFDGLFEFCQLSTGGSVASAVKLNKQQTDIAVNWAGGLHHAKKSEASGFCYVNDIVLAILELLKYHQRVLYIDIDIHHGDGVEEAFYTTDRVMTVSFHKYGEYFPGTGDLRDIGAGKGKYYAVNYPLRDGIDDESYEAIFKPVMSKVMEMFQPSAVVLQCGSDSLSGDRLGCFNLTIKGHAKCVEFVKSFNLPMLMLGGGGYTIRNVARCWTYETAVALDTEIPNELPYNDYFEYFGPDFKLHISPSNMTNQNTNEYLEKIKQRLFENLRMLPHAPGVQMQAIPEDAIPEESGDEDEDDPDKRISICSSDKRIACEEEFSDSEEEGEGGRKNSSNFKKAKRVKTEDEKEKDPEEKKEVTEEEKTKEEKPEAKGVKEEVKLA
pIC50: −log10 of the molar value.

# compound, limit sign, pIC50
data = [
    ("Cc1c(Cc2ccc(C(=O)NO)cc2)c2ccccc2n1CC1CCN(CC2(F)COC2)CC1 [Compound 609]", "=", 5.44),
    ("Cc1c(Cc2ccc(C(=O)NO)cc2)c2ccccc2n1CC1CCN(CC(C)(C)F)CC1 [Compound 528]", "=", 5.10),
    ("Cc1c(Cc2ccc(C(=O)NO)cc2)c2ccccc2n1CCN1CCN(C(C)C)CC1 [Compound 196]", "=", 5.79),
    ("O=C(NO)c1ccc(Cc2c(CN3CCOCC3)[nH]c3ccccc23)cc1 [Compound 155]", "=", 5.41),
    ("Cc1c(Cc2ccc(C(=O)NO)cc2)c2cc(F)ccc2n1CCN1CCC(F)CC1 [Compound 590]", "=", 5.21),
    ("Cc1c(Cc2ccc(C(=O)NO)cc2)c2ccccc2n1CC1CCN(CC2(F)CCN(C(C)C)CC2)CC1 [Compound 681]", "=", 6.10),
    ("Cc1c(Cc2ccc(C(=O)NO)cc2)c2ccccc2n1CC1CCN(Cc2cccc(-c3nccs3)c2)CC1 [Compound 603]", "<", 5.00),
    ("Cc1c(Cc2ccc(C(=O)NO)cc2)c2ccccc2n1CC1CCN(Cc2cccc(F)c2)CC1 [Compound 631]", "<", 5.00),
    ("CC(C)(F)CN1CCC(Cn2cc(Cc3ccc(C(=O)NO)cc3)c3cccnc32)CC1 [Compound 748]", "=", 5.41),
    ("CCCc1c(Cc2ccc(C(=O)NO)cc2)c2ccccc2n1CC1CCN(CC(C)(C)F)CC1 [Compound 602]", "<", 5.00),
    ("Cc1c(Cc2ccc(C(=O)NO)cc2)c2ccccc2n1CC1CCN(CC(C)(C)F)C1 (stereo not shown) [Compound 713]", "<", 5.00),
    ("CCC(F)(CC)CN1CCC(CCn2c(C)c(Cc3ccc(C(=O)NO)cc3)c3ccccc32)CC1 [Compound 581]", "<", 5.00),
    ("Cc1c(Cc2ccc(C(=O)NO)cc2)c2cc(F)ccc2n1CC1CCN(CC(C)(C)F)CC1 [Compound 588]", "=", 5.17),
]
